Field: EC50. Provide a value for each of the compounds that follow.
system: SARS-CoV-2-GHB-03021/2020; experiment: microbe, parasite or virus in culture; format: cell-based; conditions: Severe acute respiratory syndrome coronavirus 2, Vero C1008, 96 h; read-out: VeroE6 + CP (EC50)

### Prompt Given the entry O=C1NCC[C@H]1C[C@H](NC(=O)[C@@H]1[C@H]2CCC[C@H]2CN1C(=O)c1cc2c(OC(F)F)cc(Cl)cc2[nH]1)C(=O)CO [Compound 126] , what EC50 was observed with SARS-CoV-2-GHB-03021/2020?
### Response 1 to 10 µM

### Prompt Given the entry O=C(NCc1ccccc1)C(=O)C(C[C@@H]1CCNC1=O)NC(=O)[C@@H]1C[C@@H](OCc2ccccc2)CN1C(=O)c1cc2ccccc2[nH]1 (stereo partly drawn) [Compound 6] , what EC50 was observed with SARS-CoV-2-GHB-03021/2020?
### Response > 100 µM

### Prompt Given the entry COc1cccc2[nH]c(C(=O)N3C[C@]4(C[C@H]3C(=O)NC(C[C@@H]3CCCNC3=O)C(=O)C(=O)NCc3ccccc3)CC4(F)F)cc12 (stereo partly drawn) [Compound 33] , what EC50 was observed with SARS-CoV-2-GHB-03021/2020?
### Response < 1 µM

### Prompt Given the entry COc1cccc2[nH]c(C(=O)N3C[C@H]4[C@@H]([C@H]3C(=O)N[C@@H](C[C@@H]3CCCNC3=O)C(=O)CO)C4(C)C)cc12 [Compound 49] , what EC50 was observed with SARS-CoV-2-GHB-03021/2020?
### Response 1 to 10 µM

### Prompt Given the entry COc1cccc2[nH]c(C(=O)N3CCC4(CC4)C[C@H]3C(=O)N[C@@H](C[C@@H]3CCCNC3=O)C(=O)CO)cc12 [Compound 44] , what EC50 was observed with SARS-CoV-2-GHB-03021/2020?
### Response 10 to 100 µM

### Prompt Given the entry O=C1NCC[C@H]1C[C@H](NC(=O)[C@@H]1[C@H]2CCC[C@H]2CN1C(=O)c1cc(-c2ccccc2)c[nH]1)C(=O)CO [Compound 79] , what EC50 was observed with SARS-CoV-2-GHB-03021/2020?
### Response 1 to 10 µM

### Prompt Given the entry O=C(NC1CC1)C(=O)[C@H](C[C@@H]1CCNC1=O)NC(=O)[C@@H]1CC2(CCN1C(=O)c1cc3c(F)cccc3[nH]1)CC2 [Compound 164] , what EC50 was observed with SARS-CoV-2-GHB-03021/2020?
### Response 10 to 100 µM

### Prompt Given the entry COc1cccc2[nH]c(C(=O)N3C[C@@H]4CCC[C@@H]4[C@H]3C(=O)N[C@@H](Cn3cc[nH]c3=O)C(=O)C(=O)NC3CC3)cc12 [Compound 119] , what EC50 was observed with SARS-CoV-2-GHB-03021/2020?
### Response > 50 µM

### Prompt Given the entry CC(C)NC(=O)C(=O)C(C[C@@H]1CCCNC1=O)NC(=O)[C@@H]1[C@H]2CCC[C@H]2CN1C(=O)c1cc2ccccc2[nH]1 (stereo partly drawn) [Compound 18] , what EC50 was observed with SARS-CoV-2-GHB-03021/2020?
### Response 1 to 10 µM

### Prompt Given the entry COc1cccc2[nH]c(C(=O)N3C[C@]4(C[C@H]3C(=O)NC(C[C@@H]3CCCNC3=O)C(=O)C(N)=O)CC4(F)F)cc12 (stereo partly drawn) [Compound 46] , what EC50 was observed with SARS-CoV-2-GHB-03021/2020?
### Response 10 to 100 µM

### Prompt Given the entry CC(C)(C)C(=O)OCC(=O)[C@H](C[C@@H]1CCNC1=O)NC(=O)[C@@H]1[C@H]2CCC[C@H]2CN1C(=O)c1cc2c(Cl)cc(Cl)cc2[nH]1 [Compound 132] , what EC50 was observed with SARS-CoV-2-GHB-03021/2020?
### Response < 1 µM

### Prompt Given the entry COc1cccc2[nH]c(C(=O)N3C[C@@H]4CCC[C@@H]4[C@H]3C(=O)N[C@@H](C[C@@H]3CCNC3=O)C(=O)C(=O)NCCOc3ccccc3)cc12 [Compound 134] , what EC50 was observed with SARS-CoV-2-GHB-03021/2020?
### Response 1 to 10 µM

---

test: in vitro; conditions: African green monkey, VeroE6 + CP (CC50), Vero E6-eGFP cells with CP-100356, absence of virus, MTS; numeric bounds
Field: CC50. Provide a value for each of the compounds that follow.

### Prompt Sample COc1cccc2[nH]c(C(=O)N3C[C@@H]4CCC[C@@H]4[C@H]3C(=O)N[C@@H](CC3CC(C)(C)NC3=O)C(=O)C(=O)NC3CC3)cc12 (single isomer, unassigned) — what was its CC50?
### Response > 50 µM

### Prompt Sample O=C1NCC[C@H]1C[C@H](NC(=O)[C@@H]1[C@H]2CCC[C@H]2CN1C(=O)c1cc2ncccc2[nH]1)C(=O)CO — what was its CC50?
### Response > 100 µM

### Prompt Sample O=C(NC1CC1)C(=O)[C@H](C[C@@H]1CCNC1=O)NC(=O)[C@@H]1CC2(CCN1C(=O)c1cc3c(F)cccc3[nH]1)CC2 — what was its CC50?
### Response > 50 µM

### Prompt Sample COc1cccc2[nH]c(C(=O)N3CC4(CC4)C[C@H]3C(=O)N[C@@H](C[C@@H]3CCNC3=O)C(=O)CO)cc12 — what was its CC50?
### Response > 100 µM

### Prompt Sample COc1cccc2[nH]c(C(=O)N3C[C@@H]4CCC[C@@H]4[C@H]3C(=O)N[C@@H](C[C@@H]3CCNC3=O)C(=O)CO)cc12 — what was its CC50?
### Response > 100 µM

### Prompt Sample CC1(C)C[C@@H](C(=O)NC(C[C@@H]2CCNC2=O)C(=O)C(=O)NCc2ccccc2)N(C(=O)c2cc3ccccc3[nH]2)C1 (stereo partly drawn) — what was its CC50?
### Response > 100 µM

---

Field: IC50. Provide a value for each of the compounds that follow.
biological target: 3CLpro (Severe acute respiratory syndrome coronavirus 2); assay: SARS-CoV-2 3CLpro protease assay (duplex, SAMDI-MS); type: biochemical; set-up: For the duplex assay, 3CLpro and HRV3C was added; settings: 3CLpro, 30 mins preincubation, class symbols; read-out: SARS-Cov-2 IC50

### Prompt Sample O=C(NCc1ccccc1)C(=O)C(C[C@@H]1CCNC1=O)NC(=O)[C@@H]1[C@H]2CC[C@H](C2)N1C(=O)c1cc2ccccc2[nH]1 (some centres unmarked) — what was its IC50?
### Response 200 to 2000 nM

### Prompt Sample O=C1NCC[C@H]1C[C@H](NC(=O)[C@@H]1[C@H]2CCC[C@H]2CN1C(=O)c1cc2c(Cl)ccc(Cl)c2[nH]1)C(=O)CO — what was its IC50?
### Response < 20 nM

### Prompt Sample COc1cccc2[nH]c(C(=O)N3C[C@@H]4CCC[C@@H]4[C@H]3C(=O)N[C@H](C=O)CC3CCNS3(=O)=O)cc12 (some centres unmarked) — what was its IC50?
### Response 200 to 2000 nM

### Prompt Sample C#C[C@H](C[C@@H]1CCNC1=O)NC(=O)[C@@H]1[C@H]2CCC[C@H]2CN1C(=O)c1cc2c(Cl)ccc(Cl)c2[nH]1 — what was its IC50?
### Response 2000 to 20000 nM

### Prompt Sample COc1cccc2[nH]c(C(=O)N3Cc4ccccc4[C@H]3C(=O)N[C@@H](C[C@@H]3CCCNC3=O)C(=O)CO)cc12 — what was its IC50?
### Response 20 to 200 nM

### Prompt Sample COc1cccc2[nH]c(C(=O)N3C[C@@H]4CCC[C@@H]4[C@H]3C(=O)N[C@@H](C[C@@H]3CCNC3=O)C(=O)c3nc4ccccc4o3)cc12 — what was its IC50?
### Response 20 to 200 nM

### Prompt Sample O=C(NCCOC1CCCC1)C(=O)[C@H](C[C@@H]1CCNC1=O)NC(=O)[C@@H]1[C@H]2CCC[C@H]2CN1C(=O)c1cc2c(Cl)cc(Cl)cc2[nH]1 — what was its IC50?
### Response < 20 nM

### Prompt Sample COc1cccc2[nH]c(C(=O)N3C[C@@H]4CCC[C@@H]4[C@H]3C(=O)N[C@@H](CC3CC(C)(C)NC3=O)C(=O)C(=O)NC3CC3)cc12 (single isomer, unassigned) — what was its IC50?
### Response 20 to 200 nM

### Prompt Sample O=C1NCC[C@H]1C[C@H](NC(=O)[C@@H]1[C@H]2CCC[C@H]2CN1C(=O)c1cc2c(Cl)cccc2[nH]1)C(=O)COCc1ccccc1 [Compound 60A] — what was its IC50?
### Response 200 to 2000 nM

### Prompt Sample N#C[C@H](C[C@@H]1CCNC1=O)NC(=O)[C@@H]1[C@H]2CCC[C@H]2CN1C(=O)c1cc2c(Cl)ccc(Cl)c2[nH]1 — what was its IC50?
### Response 200 to 2000 nM

### Prompt Sample COc1cccc2[nH]c(C(=O)N3C[C@H]4[C@@H]([C@H]3C(=O)N[C@@H](C[C@@H]3CCCNC3=O)C(=O)CO)C4(C)C)cc12 — what was its IC50?
### Response < 20 nM

### Prompt Sample CC1(C)C[C@@H](C(=O)NC(C[C@@H]2CCNC2=O)C(=O)C(=O)NCc2ccccc2)N(C(=O)c2cc3ccccc3[nH]2)C1 (some centres unmarked) — what was its IC50?
### Response 200 to 2000 nM

### Prompt Sample COc1cccc2[nH]c(C(=O)N3C[C@H]4[C@@H]([C@H]3C(=O)N[C@@H](C[C@@H]3CCCNC3=O)C(=O)C(=O)NC3CC3)C4(C)C)cc12 — what was its IC50?
### Response 20 to 200 nM

### Prompt Sample O=C(NCc1ccccc1)C(=O)C(C[C@@H]1CCNC1=O)NC(=O)[C@@H]1[C@H]2CCC[C@H]2CN1C(=O)c1cc2ccccc2[nH]1 (some centres unmarked) — what was its IC50?
### Response 200 to 2000 nM

### Prompt Sample COc1ccc(F)c2[nH]c(C(=O)N3C[C@@H]4CCC[C@@H]4[C@H]3C(=O)N[C@@H](C[C@@H]3CCNC3=O)C(=O)CO)cc12 — what was its IC50?
### Response < 20 nM

### Prompt Sample O=C(NCc1ccccc1)C(=O)[C@H](C[C@@H]1CCNC1=O)NC(=O)[C@@H]1CC2(CCN1C(=O)c1cc3ccccc3[nH]1)CC2 — what was its IC50?
### Response 20 to 200 nM

### Prompt Sample O=C1NCC[C@H]1C[C@H](NC(=O)[C@@H]1[C@H]2CCC[C@H]2CN1C(=O)c1cc2c(C(F)(F)F)cccc2[nH]1)C(=O)CO — what was its IC50?
### Response 20 to 200 nM

### Prompt Sample O=C1NCC[C@H]1C[C@H](NC(=O)[C@@H]1[C@H]2CCC[C@H]2CN1C(=O)c1cc2c([nH]1)CCS2(=O)=O)C(=O)CO — what was its IC50?
### Response 20 to 200 nM

### Prompt Sample CCOC(=O)c1cc(C(=O)N2C[C@@H]3CCC[C@@H]3[C@H]2C(=O)N[C@@H](C[C@@H]2CCNC2=O)C(=O)CO)[nH]c1C — what was its IC50?
### Response 20 to 200 nM

### Prompt Sample COc1cccc2[nH]c(C(=O)N3C[C@H]4[C@@H]([C@H]3C(=O)N[C@@H](C[C@@H]3CCCNC3=O)C(=O)COCc3ccccc3)C4(C)C)cc12 [Compound 49A] — what was its IC50?
### Response 20 to 200 nM

### Prompt Sample O=C1NCC[C@H]1C[C@H](NC(=O)[C@@H]1[C@H]2CCC[C@H]2CN1C(=O)c1nc2c(Cl)ccc(Cl)c2[nH]1)C(=O)CO — what was its IC50?
### Response < 20 nM

### Prompt Sample CC[C@@H]1C[C@@H](C(=O)N[C@@H](C[C@@H]2CCNC2=O)C(=O)C(=O)NCc2ccccc2)N(C(=O)c2cc3ccccc3[nH]2)C1 — what was its IC50?
### Response 200 to 2000 nM

### Prompt Sample COc1cccc2[nH]c(C(=O)N3C[C@@H]4CCC[C@@H]4[C@H]3C(=O)N[C@@H](C[C@H]3CC(C)(C)NC3=O)C(=O)CO)cc12 — what was its IC50?
### Response 200 to 2000 nM
